For each entry below, report its Screen Test Failure value.
# Tested on: Swiss-Webster male mice
# testDescription: Mouse Activity and Screen Test (MAST): screen test failure
# Type: in vivo
# conditionsUsed: 0.3 mg/kg i.p., 1 hour prior to testing
Hi! Could you send only the number? It should be in %, unit omitted.

Query "CC1(C)OC[C@@H](CNc2ncnc3c2ncn3[C@@H]2O[C@H](CO)[C@@H](O)[C@H]2O)O1" yields Screen Test Failure of 0

Query Nc1nc(NCC(O)CO)c2ncn([C@@H]3O[C@H](CO)[C@@H](O)[C@H]3O)c2n1 (some centres unmarked) yields Screen Test Failure of 0

Query CC1(C)OCC(CNc2ncnc3c2ncn3[C@@H]2O[C@H](CO)[C@@H](O)[C@H]2O)O1 (some centres unmarked) yields Screen Test Failure of 0

Query "OC[C@@H](O)CNc1ncnc2c1ncn2[C@@H]1O[C@H](CO)[C@@H](O)[C@H]1O" yields Screen Test Failure of 0

Query OCC(O)CNc1ncnc2c1ncn2[C@@H]1O[C@H](CO)[C@@H](O)[C@@H]1O (stereo partly drawn) [Example 1, (R,S)-N^6 [2,3-Dihydroxypropyl]adenosine] yields Screen Test Failure of 100

Reference for the values: patent US4616003A
